- target under test: T1, human FLT3 (human, UniProt P36888 27-541, limits assumed)
- T1 construct: Soluble analyte hFLT3 in SPR; also called hFLT3; huFlt3
- T1 sequence: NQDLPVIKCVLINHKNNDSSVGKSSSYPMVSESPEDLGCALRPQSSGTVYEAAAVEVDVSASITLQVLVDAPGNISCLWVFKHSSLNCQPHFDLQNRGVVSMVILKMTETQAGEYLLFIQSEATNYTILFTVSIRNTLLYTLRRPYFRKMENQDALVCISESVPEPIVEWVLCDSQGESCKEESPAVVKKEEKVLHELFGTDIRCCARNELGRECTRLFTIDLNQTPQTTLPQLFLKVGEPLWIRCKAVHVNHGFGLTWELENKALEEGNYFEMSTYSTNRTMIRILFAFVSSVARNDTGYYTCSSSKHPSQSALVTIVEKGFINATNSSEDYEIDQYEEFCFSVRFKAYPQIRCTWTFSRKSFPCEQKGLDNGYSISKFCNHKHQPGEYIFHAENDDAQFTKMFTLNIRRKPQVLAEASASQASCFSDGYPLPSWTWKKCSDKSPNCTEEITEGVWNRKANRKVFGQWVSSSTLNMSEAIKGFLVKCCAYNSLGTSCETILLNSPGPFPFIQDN
- protocol description: SPR Biacore T200, 37C; scFv format
value type: koff (s⁻¹)
Answer with a number only, understood to be in s⁻¹.

Lookup: Please give measured koff of the following entry: P1B11 (scFv format) (scFv, not shown: a dimerising Fc or GST; small tags and cut ends) scFv: QVQLVQSGAEVKKPGSSVKVSCKASGGTFRSFDISWVRQAPGQGLEWMGRIIPILGYANYAQKFQGRVTITADESTSTAYMELSSLRSEDTAVYYCASDLGAPWAGYPFDPWGQGTLVTVSSGGGGSGGGGSGGGGSEIVLTQSPGTLSLSPGERATLSCRASQSVSSSELAWYQQKPGQAPRLLIYDASSRATGIPDRFSGSGSGTDFTLTISRLEPEDFAVYYCQQYDSSPLTFGQGTKVEIK
Found: 0.00257

Lookup: Please give measured koff of the following entry: P7F9 (scFv format) (scFv) scFv: EVQLLESGGGLVQPGGSLRLSCAASGFTFSSYAMSWVRQAPGKGLEWVSAIGGSGGSTYYADSVKGRFTISRDNSKNTLYLQMNSLRAEDTAMYYCARDYYAFSDPAYGGMDVWGQGTLVTVSSGGGGSGGGGSGGGGSNFMLTQPHSVSESPGKTVTISCTRSSGSIASNYVQWYQQKPGQAPVLVVYDDSDRPSGIPERFSGSNSGNTATLTISRVEAGDEADYYCQVWDSSSDHWVFGGGTKLTVL
Found: 0.00241

Lookup: Please give measured koff of the following entry: P1A5 (scFv format) (scFv) scFv: QVQLVQSGAEVKKPGSSVKVSCKASGGVFSRYALSWVRQAPGQGLEWMGGIIPMLGFANYAQKFQGRVTITADESTSTAYMELSSLRSEDTAVYYCATLDFGALDYWGQGTLVTVSSGGGGSGGGGSGGGGSEIVLTQSPGTLSLSPGERATLSCRASQAVDSSDLAWYQQKPGQAPRLLIYDAYTRPSGIPDRFSGSGSGTDFTLTISRLEPEDFAVYYCQQYGSSPLTFGGGTKLEIK
Found: 0.000292
